# System: NCI-H460 lung
# MEASUREMENT DESCRIPTION: NCI tumour cell line growth inhibition, 48 h
QUANTITY KIND: TGI

{"COMPOUND": "CCOC(=O)c1ccc(C(=O)/C(C#N)=C2\\CCCN2)n1C", "TGI": "> 100 µM"}
{"COMPOUND": "COc1cc2c(cc1OCCCC(=O)Nc1cc(C(=O)Nc3cc(C(=O)Nc4cc(C(=O)NCCCN(C)C)n(C)n4)n(C)c3)n(C)c1)N=CC1CCCN1C2=O (centres undefined)", "TGI": "> 100 µM"}
{"COMPOUND": "N#CC(NCCc1ccccc1)c1ccc(C(C#N)NCCc2ccccc2)cc1 (centres undefined)", "TGI": "> 100 µM"}
{"COMPOUND": "CN1CCN(Cc2nc3cccc4c3c([n+]2[O-])-c2ccccc2-4)CC1", "TGI": "> 100 µM"}
{"COMPOUND": "CCOC(=O)C(/C(=N/NC(=O)OC)C(=O)Nc1ccc(C(C)=O)cc1)c1cnc2ccccc2n1 (centres undefined)", "TGI": "> 100 µM"}
{"COMPOUND": "COc1cc2nccc(Oc3ccc(NC(=O)C4(C(=O)Nc5ccc(F)cc5)CC4)cc3)c2cc1OC(=O)c1ccc(N)cc1", "TGI": "54.2 µM"}

TGI for O=C1c2ccccc2C(=O)c2nc3c(O)cccc3cc21 is > 100 µM

TGI for CCOC(=O)C1=C(C)N2CCOC2(C)C(C(=O)OC)C1c1cccc(Cl)c1 (centres undefined) is > 100 µM

TGI for O=C1NC(=NCc2c(Cl)cccc2Cl)S/C1=C\c1ccc2ncccc2c1 is > 25 µM
